Target: human Notch2 on U-87 MG cells (human, UniProt Q04721 26-2471)
Sequence (Q04721 26-2471): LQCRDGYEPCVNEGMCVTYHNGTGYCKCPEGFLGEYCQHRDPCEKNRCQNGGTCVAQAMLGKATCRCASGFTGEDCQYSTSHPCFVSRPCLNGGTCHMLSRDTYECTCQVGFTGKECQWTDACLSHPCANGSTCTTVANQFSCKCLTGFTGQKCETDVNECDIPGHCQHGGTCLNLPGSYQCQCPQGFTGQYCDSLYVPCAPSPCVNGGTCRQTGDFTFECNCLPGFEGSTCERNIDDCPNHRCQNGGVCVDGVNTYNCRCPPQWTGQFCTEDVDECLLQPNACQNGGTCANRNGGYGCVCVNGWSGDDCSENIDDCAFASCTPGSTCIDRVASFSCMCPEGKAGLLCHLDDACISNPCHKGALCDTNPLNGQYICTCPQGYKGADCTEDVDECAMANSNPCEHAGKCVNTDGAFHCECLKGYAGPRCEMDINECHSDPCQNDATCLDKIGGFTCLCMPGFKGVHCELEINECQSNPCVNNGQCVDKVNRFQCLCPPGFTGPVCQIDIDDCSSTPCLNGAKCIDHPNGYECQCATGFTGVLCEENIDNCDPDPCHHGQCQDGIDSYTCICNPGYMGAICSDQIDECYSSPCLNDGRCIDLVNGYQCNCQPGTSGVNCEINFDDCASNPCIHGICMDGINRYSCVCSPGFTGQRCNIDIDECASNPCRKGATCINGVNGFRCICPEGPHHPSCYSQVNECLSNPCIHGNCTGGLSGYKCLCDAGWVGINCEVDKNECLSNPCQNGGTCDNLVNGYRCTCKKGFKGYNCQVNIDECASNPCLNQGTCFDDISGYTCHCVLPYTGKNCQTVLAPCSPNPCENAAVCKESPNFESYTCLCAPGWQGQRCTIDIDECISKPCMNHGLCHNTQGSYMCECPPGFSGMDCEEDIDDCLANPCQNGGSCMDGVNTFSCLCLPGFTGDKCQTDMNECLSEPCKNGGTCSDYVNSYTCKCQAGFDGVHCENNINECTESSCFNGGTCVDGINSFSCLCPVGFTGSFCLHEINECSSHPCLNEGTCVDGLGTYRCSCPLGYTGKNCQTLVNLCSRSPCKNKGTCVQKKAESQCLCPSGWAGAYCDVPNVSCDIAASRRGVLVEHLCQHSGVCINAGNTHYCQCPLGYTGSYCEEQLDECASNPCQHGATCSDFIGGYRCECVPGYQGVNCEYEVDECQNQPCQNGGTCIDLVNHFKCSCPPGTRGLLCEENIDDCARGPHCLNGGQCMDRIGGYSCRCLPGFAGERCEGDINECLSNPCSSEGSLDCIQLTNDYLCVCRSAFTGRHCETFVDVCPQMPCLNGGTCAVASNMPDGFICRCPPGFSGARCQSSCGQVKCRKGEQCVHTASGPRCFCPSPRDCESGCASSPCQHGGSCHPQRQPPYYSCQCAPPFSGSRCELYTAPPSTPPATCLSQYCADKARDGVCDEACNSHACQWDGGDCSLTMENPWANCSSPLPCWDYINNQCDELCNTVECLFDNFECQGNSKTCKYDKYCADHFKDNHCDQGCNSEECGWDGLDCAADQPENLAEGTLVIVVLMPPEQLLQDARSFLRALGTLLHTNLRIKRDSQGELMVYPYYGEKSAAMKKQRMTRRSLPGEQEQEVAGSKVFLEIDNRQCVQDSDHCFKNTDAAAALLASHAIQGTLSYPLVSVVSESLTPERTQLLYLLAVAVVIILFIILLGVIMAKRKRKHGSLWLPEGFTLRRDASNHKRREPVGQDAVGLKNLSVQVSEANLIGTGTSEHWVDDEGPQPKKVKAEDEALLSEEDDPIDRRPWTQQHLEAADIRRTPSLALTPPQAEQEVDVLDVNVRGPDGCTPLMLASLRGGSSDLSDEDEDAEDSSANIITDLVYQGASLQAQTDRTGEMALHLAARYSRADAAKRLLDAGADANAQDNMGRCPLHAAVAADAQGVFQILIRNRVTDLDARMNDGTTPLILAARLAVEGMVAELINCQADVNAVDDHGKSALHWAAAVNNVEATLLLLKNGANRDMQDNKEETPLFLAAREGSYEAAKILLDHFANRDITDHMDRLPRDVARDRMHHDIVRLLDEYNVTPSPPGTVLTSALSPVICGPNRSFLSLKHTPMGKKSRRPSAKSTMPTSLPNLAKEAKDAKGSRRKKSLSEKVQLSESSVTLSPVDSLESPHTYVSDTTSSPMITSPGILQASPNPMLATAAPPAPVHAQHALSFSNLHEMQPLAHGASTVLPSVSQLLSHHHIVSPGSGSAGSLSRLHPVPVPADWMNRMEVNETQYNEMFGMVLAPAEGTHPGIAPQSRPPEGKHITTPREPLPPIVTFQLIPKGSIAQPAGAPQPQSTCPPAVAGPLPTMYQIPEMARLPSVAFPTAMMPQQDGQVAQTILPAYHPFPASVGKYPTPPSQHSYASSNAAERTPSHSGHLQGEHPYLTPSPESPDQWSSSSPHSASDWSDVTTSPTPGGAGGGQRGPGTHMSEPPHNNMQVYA
Assay: cell-based or functional assay
Please mark rule met if the recorded Jagged1 IC50 is equal to or greater than 2 nM, and rule not met if it falls below.

Query: Dear colleague, could you confirm whether hu1B2.v103 (antibody, V domains shown, Human IgG1 backbone) VH: EVQLVESGGGLVQPGGSLKLSCAVSGFTFSDFYMEWVRQASGKGLEWVAAQRNKANDFSIVYSASVKDRFTISRDDSKSTLYLQMNSLKTEDTAVYYCSRDGGKWGLDAWGQGTLVTVSS VL: DIQMTQSPSSVSASVGDRVTITCQTSEDIYSGLAWYQQKPGKSPKLLIYGASRLQDGVPSRFSGSGSGTDYTLTISSLQPEDFATYYCQQGFKYPLTFGGGTKVEIK has Jagged1 IC50 at or above 2 nM?
Response: rule not met

Query: Dear colleague, could you confirm whether rat.1B2 (rat/human chimeric anti-Notch2 antibody 1B2) (antibody, V domains shown, also called 1B2 Chimeric; chimeric 1B2) VH: EVKLVDYGGGLVQPGASLRLSCEVSGFTFSDFYMEWIRQAPGKGLEWIAASRNKANNFSIVYSASVKDRFTISRDTYKSILYLQMSTLKPEDTAVYYCSRDSGRWGLDAWGQGTSVIVSS VL: DIQMTQSPASLSASLGETVTIQCQTSEDIYSGLAWYHQKPGKSPQLLIYGASRLQDGVPSRFTGSGSGTQYSLKISSMQTEDEGVYFCQQGFKYPLTFGSGTKLEIK has Jagged1 IC50 at or above 2 nM?
Response: rule met

Query: Dear colleague, could you confirm whether hu1B2.v102 (antibody, V domains shown, Human IgG1 backbone) VH: EVQLVESGGGLVQPGGSLKLSCAVSGFTFSDFYMEWVRQASGKGLEWVAAQRNKANDFSIVYSASVKDRFTISRDDSKSTLYLQMNSLKTEDTAVYYCSRDGGRLALDAWGQGTLVTVSS VL: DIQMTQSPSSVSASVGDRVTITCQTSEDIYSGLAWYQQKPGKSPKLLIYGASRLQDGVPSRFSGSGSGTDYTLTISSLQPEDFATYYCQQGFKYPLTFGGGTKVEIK has Jagged1 IC50 at or above 2 nM?
Response: rule not met

Query: Dear colleague, could you confirm whether rb.2621 (rabbit/human chimeric anti-Notch2 antibody 2621) (antibody, V domains shown) VH: QSLEESGGGLVQPGASLTLTCTASGFSFSSGYDMCWVRQAPGKGLEWIACIVTVSGNTYYASWAKGRFTISKTSSTTVTLQMTSLTAADTATYFCARDGGFTDTWYFHLWGPGTLVTVSS VL: AYDMTQTPASVEVAVGGTVTIKCQASESIGSYLAWYQQKPGQPPKLLIYRASTLASGVPSRFKGSGSGTEFTLTISGVQCDDAATYYCQQTYSGAGVDNLFGGGTKVEIK has Jagged1 IC50 at or above 2 nM?
Response: rule not met

Query: Dear colleague, could you confirm whether rb.2338 (rabbit/human chimeric anti-Notch2 antibody 2338) (antibody, V domains shown) VH: QSLEESGGDLVKPGASLTLTCTASGFSFSSGYDMCWVRQAPGKGLEWIACIYAGSEGFTYYASWAKGRFTISKSSSTTVTLQMTSLTVADTATYFCARWTDSDGSNLWGPGTLVTVSS VL: DVVMTQTPASVEAAVGGTVTIKCQASQSISSYLAWYQQKPGQPPKLLIYRASKLASGVPSRFSGRGSGTQFTLTISDLECADAATYYCQSNSYGNNWVGGFGGGTKVEIK has Jagged1 IC50 at or above 2 nM?
Response: rule met
